- Tested on: CP238
- protocol: qHTS profiling for inhibitors of Plasmodium falciparum proliferation (AID 504749); note: nearly all actives have a fitted effect of over 60% in size
- condition.notes: P. falciparum in erythrocytes, SYBR Green DNA, 72 h; series mostly up to 28.7 µM
Records with an inconclusive call do not appear. Active and inactive are the calls of the source. Calls come from the whole dose curve; as a rule, active = well fitted inhibition curve with a large enough effect; inconclusive = small, poorly fitted or top-dose-only effect; inactive = flat fitted curve, though single readings scatter.
Lab note: assign the record to one of T (active), F (inactive)

Observe how each entry below is paired with its result.
Challenge: Tell me the assay call for CCOC(=O)C1=C(C)NC(C)=C(C(=O)OCC)C1c1ccccc1C=CC(=O)OC(C)(C)C please.
Response given: T

Challenge: Okay, and CO[C@H]1C[C@@H]2CC[C@@H](C)[C@@](O)(O2)C(=O)C(=O)N2CCCC[C@H]2C(=O)O[C@H]([C@H](C)C[C@@H]2CC[C@@H](OCCO)[C@H](OC)C2)CC(=O)[C@H](C)/C=C(\C)[C@@H](O)[C@@H](OC)C(=O)[C@H](C)C[C@H](C)/C=C/C=C/C=C/1C ?
Response given: T

Challenge: Okay, and O=C1C(=O)c2ncccc2-c2cccnc21 ?
Response given: T

Challenge: Okay, and COC(=O)C1=C(C#N)NC(C)=C(C(=O)OC(C)C)C1c1cccc([N+](=O)[O-])c1 (stereo unspecified) ?
Response given: T

***
Challenge: Tell me the assay call for CO[C@H](C(=O)[C@@H](O)[C@@H](C)O)C1Cc2cc3cc(O[C@H]4C[C@@H](O[C@H]5C[C@@H](O)[C@H](O)[C@@H](C)O5)[C@@H](O)[C@@H](C)O4)c(C)c(O)c3c(O)c2C(=O)[C@H]1O[C@H]1C[C@@H](O[C@H]2C[C@@H](O[C@H]3C[C@](C)(O)[C@H](O)[C@@H](C)O3)[C@H](O)[C@@H](C)O2)[C@H](O)[C@@H](C)O1 (stereo partly specified) please.
Response given: T

Challenge: Okay, and CC(C(=O)O)c1ccc(N2Cc3ccccc3C2=O)cc1 (stereo unspecified) ?
Response given: F

Challenge: Okay, and O=C(O)c1cc(O)c2c(c1)[O][Bi][O]2 ?
Response given: F

Challenge: Okay, and CC(O)CO (stereo unspecified) ?
Response given: F

Challenge: Okay, and COC(F)(F)C(Cl)Cl ?
Response given: F

Challenge: Okay, and Cc1ccccc1OCC(O)CNCCOc1ccc(C(N)=O)cc1 (stereo unspecified) ?
Response given: F

Challenge: Okay, and Cc1cn([C@H]2C[C@H](O)[C@@H](CO)O2)c(=O)[nH]c1=O ?
Response given: F
